# Tested on: HCT-116
# Run description: GI arrest (1 fold increase over control) in HCT116 cells was determined by flow cytometry after 24 hr incubation
# Type: functional, Homo sapiens
Classification field: enter TRUE for Fold increase values not below 2, FALSE for values below it.

Query: Check the entry COc1cc2ccn(C)c2c2c3c(c4c5ccccc5[nH]c4c12)C(=O)NC3=O : does Fold increase equal or exceed 2?
Response: FALSE

Query: Check the entry COc1ccc2c3c4c(c5c(ccc6ccn(C)c65)c3n(CCCN3CCC(C(N)=O)CC3)c2c1)C(=O)NC4=O : does Fold increase equal or exceed 2?
Response: FALSE

Query: Check the entry Cn1ccc2ccc3c4[nH]c5c(CCN6CCC[C@H]6CO)cccc5c4c4c(c3c21)C(=O)NC4=O.O=C(O)C(F)(F)F : does Fold increase equal or exceed 2?
Response: FALSE

Query: Check the entry Cl.Cn1ccc2ccc3c4[nH]c5c(CCN6CCOCC6)cccc5c4c4c(c3c21)C(=O)NC4=O : does Fold increase equal or exceed 2?
Response: FALSE

Query: Check the entry Cn1ccc2ccc3c4[nH]c5c(CCN6CCCCC6)cccc5c4c4c(c3c21)C(=O)NC4=O : does Fold increase equal or exceed 2?
Response: FALSE

Query: Check the entry Cn1ccc2ccc3c4[nH]c5cc(O)ccc5c4c4c(c3c21)C(=O)NC4=O : does Fold increase equal or exceed 2?
Response: TRUE

Query: Check the entry COc1ccc2c3c4c(c5c(ccc6ccn(C)c65)c3n(CCCNCCO)c2c1)C(=O)NC4=O : does Fold increase equal or exceed 2?
Response: FALSE

Query: Check the entry COc1ccc2c(c1)[nH]c1c3ccc4ccn(C)c4c3c3c(c21)C(=O)NC3=O : does Fold increase equal or exceed 2?
Response: TRUE

Query: Check the entry Cn1ccc2ccc3c4[nH]c5c(CCN6CCC(O)CC6)cccc5c4c4c(c3c21)C(=O)NC4=O.O=C(O)C(F)(F)F : does Fold increase equal or exceed 2?
Response: FALSE

Query: Check the entry COc1ccc2c3c4c(c5c(ccc6ccn(C)c65)c3n(CCCO)c2c1)C(=O)NC4=O : does Fold increase equal or exceed 2?
Response: TRUE

Query: Check the entry Cn1ccc2ccc3c4[nH]c5c(CCN6CCC(C(N)=O)CC6)cccc5c4c4c(c3c21)C(=O)NC4=O : does Fold increase equal or exceed 2?
Response: FALSE

Query: Check the entry Cn1ccc2ccc3c4[nH]c5c(CCN6CCOCC6)cccc5c4c4c(c3c21)C(=O)NC4=O : does Fold increase equal or exceed 2?
Response: FALSE

Query: Check the entry COc1cc2c3[nH]c4ccccc4c3c3c(c2c2c1ccn2C)C(=O)NC3=O : does Fold increase equal or exceed 2?
Response: FALSE

Query: Check the entry COc1ccc2c3c4c(c5c(ccc6ccn(C)c65)c3n(CCNCCO)c2c1)C(=O)NC4=O : does Fold increase equal or exceed 2?
Response: TRUE

###

What IC50 was measured for each of the following?
# Target system: Cyclin-dependent kinase 2/cyclin E (Homo sapiens)
# Run description: Inhibitory activity against Cyclin E-cyclin-dependent kinase 2 in enzymatic assay by measuring phosphorylation of RbING
Write the number in nM without appending the unit.

Just so you know, measured IC50 for Cn1ccc2ccc3c4[nH]c5cc(F)ccc5c4c4c(c3c21)C(=O)NC4=O came out at 9

Just so you know, measured IC50 for Cn1ccc2ccc3c4[nH]c5cc(C#N)ccc5c4c4c(c3c21)C(=O)NC4=O came out at 10

Just so you know, measured IC50 for Cn1ccc2ccc3c4[nH]c5c(CCN6CCC[C@H]6CO)cccc5c4c4c(c3c21)C(=O)NC4=O came out at 685

Just so you know, measured IC50 for COc1ccc2c(c1)[nH]c1c3ccc4cc[nH]c4c3c3c(c21)C(=O)NC3=O came out at 125

Just so you know, measured IC50 for COc1ccc2c3c4c(c5c(ccc6ccn(C)c65)c3n(CCN3CCC[C@H]3CO)c2c1)C(=O)NC4=O came out at 942

Just so you know, measured IC50 for COc1ccc2c(c1)[nH]c1c3ccc4ccn(C)c4c3c3c(c21)C(=O)NC3=O came out at 112

Just so you know, measured IC50 for COc1ccc2c3c4c(c5c(ccc6ccn(C)c65)c3n(CCCN3CCC(O)CC3)c2c1)C(=O)NC4=O came out at 2100

Just so you know, measured IC50 for Cc1cc2ccn(C)c2c2c3c(c4c5ccc(F)cc5[nH]c4c12)C(=O)NC3=O came out at 23

Just so you know, measured IC50 for Cn1ccc2ccc3c4[nH]c5c(CCN6CCCCC6)cccc5c4c4c(c3c21)C(=O)NC4=O came out at 1060

Just so you know, measured IC50 for Cn1ccc2ccc3c(c4c(c5c6ccccc6n(CCCO)c35)C(=O)NC4=O)c21 came out at 67

Just so you know, measured IC50 for Cn1ccc2ccc3c4[nH]c5cc(OCc6ccccc6)ccc5c4c4c(c3c21)C(=O)NC4=O came out at 328

Just so you know, measured IC50 for O=C1NC(=O)c2c1c1c(ccc3cc[nH]c31)c1c2c2ccccc2n1CCCO came out at 8

Just so you know, measured IC50 for Cn1ccc2ccc3c4[nH]c5c(CCN6CCSCC6)cccc5c4c4c(c3c21)C(=O)NC4=O came out at 1800

Just so you know, measured IC50 for COc1ccc2c3c4c(c5c(ccc6ccn(C)c65)c3n(CCCNCCO)c2c1)C(=O)NC4=O came out at 432

Just so you know, measured IC50 for COc1ccc2c3c4c(c5c(ccc6ccn(C)c65)c3n(CCCN3CCOCC3)c2c1)C(=O)NC4=O came out at 716

Just so you know, measured IC50 for COc1ccc2c3c4c(c5c(ccc6ccn(C)c65)c3n(CCN[C@H]3CC[C@H](O)CC3)c2c1)C(=O)NC4=O came out at 902

Just so you know, measured IC50 for Cn1ccc2ccc3c4[nH]c5c(CCN6CCC(C(N)=O)CC6)cccc5c4c4c(c3c21)C(=O)NC4=O came out at 796

Just so you know, measured IC50 for CCOc1ccc2c(c1)[nH]c1c3ccc4ccn(C)c4c3c3c(c21)C(=O)NC3=O came out at 324

Just so you know, measured IC50 for Cc1cc2ccn(C)c2c2c3c(c4c5ccccc5n(C)c4c12)C(=O)NC3=O came out at 267

Just so you know, measured IC50 for CN1CCN(CCCc2cccc3c2[nH]c2c4ccc5ccn(C)c5c4c4c(c32)C(=O)NC4=O)CC1 came out at 1670

Just so you know, measured IC50 for COc1ccc2c3c4c(c5c(ccc6ccn(C)c65)c3n(CCO)c2c1)C(=O)NC4=O came out at 101

Just so you know, measured IC50 for COc1ccc2c3c4c(c5c(ccc6ccn(C)c65)c3n(CCN3CCCCC3)c2c1)C(=O)NC4=O came out at 928

Just so you know, measured IC50 for COc1ccc2c(c1)[nH]c1c2c2c(c3c1c(C)cc1ccn(C)c13)C(=O)NC2=O came out at 57

Just so you know, measured IC50 for COc1ccc2c3c4c(c5c(ccc6ccn(C)c65)c3n(CCCN3CCSCC3)c2c1)C(=O)NC4=O came out at 1260

Just so you know, measured IC50 for COc1ccc2c3c4c(c5c(ccc6ccn(C)c65)c3n(CCCN3CCN(C)CC3)c2c1)C(=O)NC4=O came out at 1230

Just so you know, measured IC50 for O=C1NC(=O)c2c1c1c3ccccc3[nH]c1c1[nH]c3ccccc3c21 came out at 897

Just so you know, measured IC50 for Cn1ccc2ccc3c4[nH]c5c(CCN6CCOCC6)cccc5c4c4c(c3c21)C(=O)NC4=O came out at 1280

Just so you know, measured IC50 for COc1ccc2c3c4c(c5c(ccc6ccn(C)c65)c3n(CCNCCO)c2c1)C(=O)NC4=O came out at 89

Just so you know, measured IC50 for Cc1ccc2c(c1)[nH]c1c3ccc4ccn(C)c4c3c3c(c21)C(=O)NC3=O came out at 320

Just so you know, measured IC50 for Cn1ccc2ccc3c4[nH]c5c(CCNCCO)cccc5c4c4c(c3c21)C(=O)NC4=O came out at 265

Just so you know, measured IC50 for Cn1ccc2ccc3c4[nH]c5c(CCCO)cccc5c4c4c(c3c21)C(=O)NC4=O came out at 558

Just so you know, measured IC50 for Cn1ccc2ccc3c4[nH]c5c(CCO)cccc5c4c4c(c3c21)C(=O)NC4=O came out at 210

Just so you know, measured IC50 for Cn1ccc2ccc3c4[nH]c5c(CCCN[C@H]6CC[C@H](O)CC6)cccc5c4c4c(c3c21)C(=O)NC4=O came out at 1030

Just so you know, measured IC50 for Cn1ccc2ccc3c4[nH]c5cc(C(F)(F)F)ccc5c4c4c(c3c21)C(=O)NC4=O came out at 225

Just so you know, measured IC50 for Cn1ccc2ccc3c4[nH]c5c(CCN6CCNCC6)cccc5c4c4c(c3c21)C(=O)NC4=O came out at 2030

Just so you know, measured IC50 for Cn1ccc2ccc3c4[nH]c5cc(Br)ccc5c4c4c(c3c21)C(=O)NC4=O came out at 75
